- Test system: Calu-3
- ASSAY_INFO: Antiproliferative activity against human Calu-3 cells assessed as reduction in cell viability after 72 hrs by CCK-8 assay
- Type: functional
Give measured GI50 for each item. Keep answers brief.
Kindly answer with a numeric value in nM, unit omitted.

# query: GI50 of entry C=CC(=O)Oc1cc2c(Nc3ccc(Cl)c(Cl)c3F)ncnc2cc1OC 1340

# query: GI50 of entry C=CC(=O)N1CCN(C(=O)Oc2cc3c(Nc4cccc(Cl)c4F)ncnc3cc2OC)[C@H](C)C1 264

# query: GI50 of entry C=CC(=O)N1CCC(Oc2cc3c(Nc4ccc(Cl)c(Cl)c4F)ncnc3cc2OC)CC1 [POZIOTINIB] 10.1
